Target: full-length beta-Catenin (Uniprot ID P35222) (Homo sapiens)
Construct: 10 nM full-length beta-Catenin (Uniprot ID P35222)
Sequence (P35222 whole entry): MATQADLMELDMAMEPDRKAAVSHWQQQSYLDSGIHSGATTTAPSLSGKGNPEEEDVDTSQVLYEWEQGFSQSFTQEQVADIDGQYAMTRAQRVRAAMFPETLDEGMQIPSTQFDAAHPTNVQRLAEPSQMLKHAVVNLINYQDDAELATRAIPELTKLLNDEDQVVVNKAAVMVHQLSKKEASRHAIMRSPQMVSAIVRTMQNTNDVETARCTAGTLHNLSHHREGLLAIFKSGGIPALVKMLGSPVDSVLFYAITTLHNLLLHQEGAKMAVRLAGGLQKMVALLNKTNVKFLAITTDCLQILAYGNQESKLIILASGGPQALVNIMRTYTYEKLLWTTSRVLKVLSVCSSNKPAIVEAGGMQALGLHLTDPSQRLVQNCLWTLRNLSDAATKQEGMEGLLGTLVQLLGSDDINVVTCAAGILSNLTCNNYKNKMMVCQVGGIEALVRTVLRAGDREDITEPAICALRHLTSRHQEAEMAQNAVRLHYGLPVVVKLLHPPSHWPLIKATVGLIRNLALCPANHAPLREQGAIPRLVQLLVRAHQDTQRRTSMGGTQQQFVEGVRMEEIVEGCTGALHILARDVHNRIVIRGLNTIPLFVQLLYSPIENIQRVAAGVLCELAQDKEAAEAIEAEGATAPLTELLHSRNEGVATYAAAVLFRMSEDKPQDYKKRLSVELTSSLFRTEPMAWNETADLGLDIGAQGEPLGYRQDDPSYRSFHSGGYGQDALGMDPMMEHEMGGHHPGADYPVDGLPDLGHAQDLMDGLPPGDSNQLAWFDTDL
Experiment: Fluorescence polarization IC50 (beta-catenin / 5FAM-TCF4 10-53 competition)
Assay type: binding
Settings: read-out: FP EC50
Experimental Endpoint: pIC50
As a rule, pIC50 stands for the negative log10 of the concentration, concentration in M.

The cases that follow already have their pIC50 on record.
CC[C@H](C)[C@@H]1NC(=O)[C@H](CC(=O)O)NC(=O)[C@]2(CC=CCCCC3(CCCC=CCCCCCC[C@@](C)(C(=O)N[C@@H](Cc4ccccc4)C(=O)N[C@@H](Cc4csc5ccccc45)C(=O)N[C@@H](CCC(N)=O)C(N)=O)NC(=O)[C@H](CCC(N)=O)NC(=O)[C@H](Cc4ccccc4)NC(=O)[C@H](CO)NC(=O)[C@H](C)NC(=O)[C@H](CCC(=O)O)NC(=O)[C@H](CC(=O)O)NC3=O)NC1=O)CCCN2C(C)=O (stereo partly drawn) [I-662] : 7.59
CC[C@@H](C)[C@@H](NC(=O)[C@H](CCC(N)=O)NC(=O)[C@H](Cc1csc2ccccc12)NC(=O)[C@H](Cc1ccccc1)NC(=O)[C@]1(C)CCCCCCC=CCCCC2(CCCC=CC[C@]3(CCCN3C(C)=O)C(=O)N[C@@H](CC(=O)O)C(=O)N[C@@H](CC(C)C)C(=O)N2)C(=O)N[C@@H](CC(=O)O)C(=O)N[C@@H](CCC(=O)O)C(=O)N[C@@H](C)C(=O)N[C@@H](C)C(=O)N[C@@H](Cc2ccccc2)C(=O)N[C@@H](CC(N)=O)C(=O)N1)C(N)=O (stereo partly drawn) [I-734] : 6.43

# input What does the data say about its pIC50? Entry: CC(=O)N1CCC[C@]12CC=CCCCC1(CCCC=CCCCOC(=O)N3CC[C@@](C(=O)N[C@@H](Cc4ccsc4)C(=O)N[C@@H](Cc4csc5ccccc45)C(=O)N[C@@H](CCC(N)=O)C(N)=O)(C3)NC(=O)[C@H](CC(N)=O)NC(=O)[C@H](Cc3ccccc3)NC(=O)[C@H](C)NC(=O)[C@H](C)NC(=O)[C@H](CCC(=O)O)NC(=O)[C@H](CC(=O)O)NC1=O)NC(=O)[C@H](CC(C)(C)C)NC(=O)[C@H](CC(=O)O)NC2=O (stereo partly drawn) [I-691]
# output 8.05
